Exercise: state measured hAMY3R EC50 (cAMP) for each of the binders provided.
Biological target: T1, hAMY3R (human, UniProt P30988)
T1 sequence 1: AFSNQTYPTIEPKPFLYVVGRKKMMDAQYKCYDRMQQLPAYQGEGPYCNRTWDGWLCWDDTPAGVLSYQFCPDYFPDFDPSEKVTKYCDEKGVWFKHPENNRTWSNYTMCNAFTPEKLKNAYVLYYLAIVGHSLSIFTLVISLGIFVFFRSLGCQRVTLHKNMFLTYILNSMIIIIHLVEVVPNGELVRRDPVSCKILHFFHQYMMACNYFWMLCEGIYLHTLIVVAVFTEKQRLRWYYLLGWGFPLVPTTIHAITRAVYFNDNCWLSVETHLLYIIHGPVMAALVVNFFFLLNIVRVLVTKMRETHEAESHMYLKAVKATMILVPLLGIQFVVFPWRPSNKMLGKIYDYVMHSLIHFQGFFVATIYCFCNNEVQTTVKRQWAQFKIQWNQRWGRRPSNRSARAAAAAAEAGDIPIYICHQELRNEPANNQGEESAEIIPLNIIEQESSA
T1 sequence 2: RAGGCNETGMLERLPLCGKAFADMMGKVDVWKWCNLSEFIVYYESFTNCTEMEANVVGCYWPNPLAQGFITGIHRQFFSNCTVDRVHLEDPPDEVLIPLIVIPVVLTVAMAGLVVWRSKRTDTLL
Assay: cell-based or functional assay
Bridge positions count the residues as written; N and C are the ends. Square brackets hold non-standard residues; d marks the D form. Ends that are not written are not given here. Hyp = O=C(O)[C@@H]1C[C@@H](O)CN1; Cit = NC(=O)NCCC[C@H](N)C(=O)O
# value in pM; strip the unit string

Data request: // hAMY3R EC50 (cAMP) lookup, key: GCRTGTCTVQRLAHQIYQFTDKDKDNVAPRTNISPQG[Hyp]-NH2 (disulfide 2-7 (inferred); ends not checked) [SEQ ID NO: 214]
Data returned: 157

Data request: What value of hAMY3R EC50 (cAMP) has been recorded for this entry: GCRTGTCTVQ[Cit]LAHQIYQFTDKDKDNVAPRTKIGPQG[Hyp]-NH2 (disulfide 2-7 (inferred); ends not checked) [SEQ ID NO: 301]
Data returned: 138

Data request: Returns the measured hAMY3R EC50 (cAMP) for the input binder. Input: GCRTGTCTVQWLAHQIYQFTDKDKDNVAPRTNIGPQGY [SEQ ID NO: 356]
Data returned: 79
